Molecular target: Luciferin 4-monooxygenase (Photinus pyralis)
Assay: qHTS of Nrf2 Activators: Hit Validation in Secondary FLuc Assay; also: nearly all actives have a fitted effect of over 65% in size; also: potency is read from the fitted curve at half-maximal effect
Conditions: firefly luciferase inhibition counter-screen, luminescence; series mostly up to 57.5 µM
Description: Many diseases have some form of oxidative stress injury and ties to inflammation, causing a host of problems for the patient. The antioxidant response element (ARE) plays an important role in alleviating the harmful effects of oxidative stress. The antioxidant response element (ARE) is a transcriptional regulatory element involved in the activation of genes coding for a number of antioxidant proteins and detoxifying enzymes. […]
The whole screen tested about 1,100 compounds, of which about 390 (35%) were called active. Another 30% or so got no clear call; they are omitted. Some of the results follow.
Experimental Readout: Potency

Record excerpt, results attached:
Nc1ccc2c(c1)Cc1c(F)cccc1-2 | 7.57 µM (active)
O=C(CSc1cccc[n+]1[O-])Nc1cc([N+](=O)[O-])ccc1Cl | inactive
COc1ccc2c(c1)Cc1c-2cc(Br)c(N)c1Br | inactive
Cc1cccc(CC2S/C(=N/N=C/c3ccco3)NC2=O)c1 (configuration not stated) | inactive
Cc1ccc(N=C2NC(=O)/C(=C/C=C/c3ccco3)S2)cc1 | 8.49 µM (active)

Query :: Fill in: Potency of `O=C(CSc1ncnc2sc3c(c12)CCCC3)c1ccco1` is ___
Result :: 2.69 µM (active)

Query :: Fill in: Potency of `O=C(Nc1cccc([N+](=O)[O-])c1)Nc1cccs1` is ___
Result :: 10.7 µM (active)

* * *

molecular target: Luciferin 4-monooxygenase (Photinus pyralis); assay: qHTS of Nrf2 Activators: Hit Validation in Secondary FLuc Assay; settings: firefly luciferase inhibition counter-screen, luminescence; series mostly up to 57.5 µM; also: nearly all actives have a fitted effect of over 65% in size
Hit rate of the full screen: of about 1,100 compounds, about 390 (35%) were called active. About 30% were inconclusive and are not listed. Calls come from the whole dose curve; as a rule, active = well fitted inhibition curve with a large enough effect; inconclusive = small, poorly fitted or top-dose-only effect; inactive = flat fitted curve, though single readings scatter. This is one part of the list.
Outcome (select one): 1 (active), 0 (inactive)

Query :: Check the results log: what was the call for `O=C(Nc1cccc(/C=C/c2ccccn2)c1)c1ccc(-n2cncn2)cc1` ?
Result :: 1

Query :: Check the results log: what was the call for `Cc1cccc2cc3c(nc12)-c1ccccc1C3=O` ?
Result :: 1

Query :: Check the results log: what was the call for CSc1ccc(C2NN=C(c3ccccc3)S2)cc1 (stereo unspecified) ?
Result :: 1

Query :: Check the results log: what was the call for `COC(=O)c1sccc1NC(=O)c1c(C)noc1C` ?
Result :: 0

Query :: Check the results log: what was the call for `[O-][n+]1onc2c1CCc1c-2nn(-c2ccccc2Cl)[n+]1[O-]` ?
Result :: 0

Query :: Check the results log: what was the call for `N=c1oc2ccccc2cc1-c1nc(-c2ccccc2)cs1` ?
Result :: 1

Query :: Check the results log: what was the call for COc1ccc(/C=C2/CCCC(CN(C)C)C2=O)cc1 (stereo unspecified) ?
Result :: 1

Query :: Check the results log: what was the call for `Cn1cc([N+](=O)[O-])c(C(=O)Nc2ccc(-c3nc4ccccc4o3)cc2)n1` ?
Result :: 1

Query :: Check the results log: what was the call for `COC(=O)c1ccsc1NC(=O)CSc1nnnn1Cc1ccccc1` ?
Result :: 0

Query :: Check the results log: what was the call for `FC(F)(F)c1ccccc1Cc1c(-c2ccccc2)nc2c3ccccc3ccn12` ?
Result :: 1

Query :: Check the results log: what was the call for `Fc1ccc2nc(Nc3nc4c(F)cc(F)cc4s3)sc2c1` ?
Result :: 1

Query :: Check the results log: what was the call for `Fc1cc(F)c2nc(Nc3nc4cc5c(cc4s3)OCO5)sc2c1` ?
Result :: 1

Query :: Check the results log: what was the call for `Fc1cccc2sc(Nc3nc4ccccc4s3)nc12` ?
Result :: 1

Query :: Check the results log: what was the call for `O=C1C(Cl)=C(N2CCN(c3ccccc3[N+](=O)[O-])CC2)C(=O)c2ccccc21` ?
Result :: 1

Query :: Check the results log: what was the call for `Cc1c(=O)n(OCc2ccccc2)c2ccccc2[n+]1[O-]` ?
Result :: 0

Query :: Check the results log: what was the call for `O=C(CCS(=O)(=O)c1ccccc1)Nc1nc(-c2ccccn2)cs1` ?
Result :: 0

Query :: Check the results log: what was the call for C=C(NC(=O)C(=C)NC(=O)c1csc(C2=NC3c4csc(n4)C4NC(=O)c5csc(n5)C(C(C)(O)C(C)O)NC(=O)C5CSC(=N5)/C(=C/C)NC(=O)C(C(C)O)NC(=O)c5csc(n5)C3(CC2)NC(=O)C(C)NC(=O)C(=C)NC(=O)C(=C)NC(=O)C(C(C)C)NC2C=Cc3c(C(C)O)cc(nc3C2O)C(=O)OC4C)n1)C(N)=O (stereo unspecified) ?
Result :: 1

Query :: Check the results log: what was the call for Cc1sc2c(c1C)C(=O)NC(c1ccccc1F)N2 (stereo unspecified) ?
Result :: 1

Query :: Check the results log: what was the call for `Cc1cccc2nc3c(nc12)-c1ccccc1C3=O` ?
Result :: 0

Query :: Check the results log: what was the call for `O=C(COCc1cc(-c2ccc(F)cc2)on1)Nc1cc(Cl)ccc1O` ?
Result :: 0

Query :: Check the results log: what was the call for COc1cccc(/C=C2/CCC(CN(C)C)C2=O)c1 (stereo unspecified) ?
Result :: 1
